Test system: KRAS patient-derived spheroids with HUVEC/MSC, viability;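 also: spheroids exposed to agents for 7 days; 100% = DMSO vehicle control viability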
Experiment: Anticancer human tumor 323965-272-R-J2-PDC patient-derived pancreatic carcinoma cell line growth inhibition [KRAS2]
Conditions: compound 0.1 µM; stronger effect = lower value
readout.name: viability, T/C

Completed entries (count: 6):
| molecule | system.under.test | reported.value |
| --- | --- | --- |
| COC(=O)c1ccc2c(C(=Nc3ccc(N(C)C(=O)CN4CCN(C)CC4)cc3)c3ccccc3)c(O)[nH]c2c1 | KRAS patient-derived spheroids with HUVEC/MSC, viability | 102% [middle of 5 runs] |
| C=CC(=O)N1CCN(c2nc(OCC3CCCN3C)nc3c2CCN(c2cccc4cccc(C)c24)C3)CC1CC#N (configuration not stated) | KRAS patient-derived spheroids with HUVEC/MSC, viability | 60.4% [middle of 17 runs] |
| CC(=O)OC12COC1CC(O)C1(C)C(=O)C(O)C3=C(C)C(OC(=O)C(O)C(NC(=O)OC(C)(C)C)c4ccccc4)CC(O)(C(OC(=O)c4ccccc4)C21)C3(C)C (configuration not stated) | KRAS patient-derived spheroids with HUVEC/MSC, viability | 32.5% [middle of 5 runs] |
| CCNC(=O)CC1N=C(c2ccc(Cl)cc2)c2cc(OC)ccc2-n2c(C)nnc21 (configuration not stated) | KRAS patient-derived spheroids with HUVEC/MSC, viability | 83.4% [middle of 5 runs] |
| CCN1CCN(Cc2ccc(Nc3ncc(F)c(-c4cc(F)c5nc(C)n(C(C)C)c5c4)n3)nc2)CC1 | KRAS patient-derived spheroids with HUVEC/MSC, viability | 61% [middle of 5 runs] |
| Cn1nccc1Nc1nccc(-c2cc3c(s2)C(C)(C)N(CCN2CCOCC2)C3=O)n1 | KRAS patient-derived spheroids with HUVEC/MSC, viability | 87.8% [middle of 5 runs] |

Consider the following items and state reported viability, T/C for each.
1. CC1(C)CCC(CN2CCN(c3ccc(C(=O)NS(=O)(=O)c4ccc(NCC5CCOCC5)c([N+](=O)[O-])c4)c(Oc4cnc5[nH]ccc5c4)c3)CC2)=C(c2ccc(Cl)cc2)C1
2. Cn1ncnc1[C@H]1c2n[nH]c(=O)c3cc(F)cc(c23)N[C@@H]1c1ccc(F)cc1
3. CN(C)C/C=C/C(=O)Nc1cc2c(Nc3ccc(F)c(Cl)c3)ncnc2cc1O[C@H]1CCOC1
4. O=C(c1cc(Cc2n[nH]c(=O)c3ccccc23)ccc1F)N1CCN(C(=O)C2CC2)CC1
5. CC1COCCN1c1cc(-c2ccnn2C)c2ccnc(-c3ccn[nH]3)c2n1 (configuration not stated)
6. CC(C)n1nc(-c2ccc3oc(N)nc3c2)c2c(N)ncnc21

Given back:
["94.9% [middle of 5 runs]", "89.2% [middle of 4 runs]", "73.5% [middle of 5 runs]", "102% [middle of 5 runs]", "25.1% [middle of 5 runs]", "21.4% [middle of 5 runs]"]

For every item below, please supply its viability, T/C.
1. C=CC(=O)N1CCN(c2nc(=O)n(-c3c(C)ccnc3C(C)C)c3nc(-c4c(O)cccc4F)c(F)cc23)C(C)C1 (configuration not stated)
2. COc1cc(Nc2ncc3c(n2)-c2ccc(Cl)cc2C(c2c(F)cccc2OC)=NC3)ccc1C(=O)O
3. COc1cc(OC)cc(N(CCNC(C)C)c2ccc3ncc(-c4cnn(C)c4)nc3c2)c1
4. CC(C)NCC(C(=O)N1CCN(c2ncnc3c2C(C)CC3O)CC1)c1ccc(Cl)cc1 (configuration not stated)
5. COc1cc2nccc(Oc3ccc(NC(=O)C4(C(=O)Nc5ccc(F)cc5)CC4)cc3)c2cc1OC

Given back:
58.9% [middle of 17 runs]
72.2% [middle of 5 runs]
101% [middle of 5 runs]
94% [middle of 5 runs]
104% [middle of 5 runs]
